- assay protocol: Cytotoxicity against human HELF cells assessed as minimum cytotoxic concentration by observing alteration in cell morphology incubated for 3 days by microscopic analysis
- Assay type: cell-based
- test conditions: HELF cells
Kindly supply the reported MCC at 72 h values for the records listed here.
Use µM as the unit, but write only the number.

Need MCC at 72 h of "CCCCCCCCCCc1cn(C[C@H](O)[C@H]2OC(=O)C(OCc3ccccc3)=C2OCc2ccccc2)nn1" , thanks.
20

Next molecule up: "Cc1ccc(-c2cn(C/C=C3\OC(=O)C(OCc4ccccc4)=C3OCc3ccccc3)nn2)cc1"
20

Next molecule up: "CCCCc1cn(C[C@H](O)[C@H]2OC(=O)C(OCc3ccccc3)=C2OCc2ccccc2)nn1"
20

---

- System: MCF7
- assay protocol: Antiproliferative activity against human MCF7 cells assessed as reduction in cell viability incubated for 72 hrs by MTT assay
- Assay type: functional, cell-based
- test conditions: MCF7, 72 h
endpoint label: IC50 (µM)
Use µM as the unit, but write only the number.

Need IC50 of "CCCCCc1ccc(-c2cn(C[C@H](O)[C@H]3OC(=O)C(OCc4ccccc4)=C3OCc3ccccc3)nn2)cc1" , thanks.
9.01

Next molecule up: "COc1ccc(-c2cn(C/C=C3\OC(=O)C(OCc4ccccc4)=C3OCc3ccccc3)nn2)cc1"
39.1

Next molecule up: "O=C1O/C(=C\Cn2cc(C3CC3)nn2)C(OCc2ccccc2)=C1OCc1ccccc1"
9.27

---

- assay protocol: Cytotoxicity against human HELF cells assessed as reduction in cell viability incubated for 3 days by coulter counter method
- Assay type: cell-based
- test conditions: 72 h
Kindly supply the reported CC50 values for the records listed here.

Need CC50 of "O=C1O/C(=C\Cn2cc(-c3cc(F)cc(F)c3)nn2)C(OCc2ccccc2)=C1OCc1ccccc1" , thanks.
> 100 µM

Next molecule up: "O=C1O/C(=C\Cn2cc(-c3ccc(Br)cc3)nn2)C(OCc2ccccc2)=C1OCc1ccccc1"
> 100 µM

Next molecule up: "Cc1ccc(-c2cn(C/C=C3\OC(=O)C(OCc4ccccc4)=C3OCc3ccccc3)nn2)cc1"
> 100 µM

Next molecule up: "COc1ccc(-c2cn(C/C=C3\OC(=O)C(OCc4ccccc4)=C3OCc3ccccc3)nn2)cc1"
> 100 µM

Next molecule up: "Nc1nc2c(ncn2COCCO)c(=O)[nH]1"
> 440 µM

---

- assay protocol: Cytotoxicity against human HELF cells assessed as minimum cytotoxic concentration by observing alteration in cell morphology incubated for 3 days by microscopic analysis
- Type: cell-based
- test conditions: HELF cells
endpoint label: MCC at 72 h

Need MCC at 72 h of Nc1ccn([C@H]2CC[C@@H](CO)O2)c(=O)n1 [ZALCITABINE] , thanks.
> 250 µM

Next compound up: "O=C1O/C(=C\Cn2cc(-c3ccc(Br)cc3)nn2)C(OCc2ccccc2)=C1OCc1ccccc1"
> 100 µM

Next compound up: "COc1ccc(-c2cn(C/C=C3\OC(=O)C(OCc4ccccc4)=C3OCc3ccccc3)nn2)cc1"
> 100 µM

All figures here come from ChEMBL document CHEMBL4406859.
